# target_entity: SARS-CoV-2 M^pro (Severe acute respiratory syndrome coronavirus 2)
# Format: biochemical
readout_type: inhibitory activity (in words)

molecule=O=c1[nH]sc2cc(F)ccc12 result_value="reduced dramatically"
molecule="O=C(O)Cn1sc2cc(F)ccc2c1=O [Compound 13a]" result_value="reduced dramatically"
